experiment: qHTS drug screen for cell cycle checkpoint inhibitors in PARPi-resistant BRCA-mutant ovarian cancer cell lines. (AID 1963452); settings: PEO1/OlaR viability, CellTiter-Glo luminescence, 96 h; measured here: PEO1 parental Z-AUC; stronger effect = lower value
Readout Type: Z-AUC
Give the figure by itself; no unit, no explanation.

Cc1c(F)cc(C(=O)NC2CC2)cc1-c1ccc(C(=O)NCC(C)(C)C)cn1
0.354
Cc1ccccc1-n1nc(-c2c(-c3ccc(F)cc3)nn3c2NC[C@@H](CO)C3)ccc1=O
0.2
Cc1nc(-c2cccnc2)sc1C(=O)Nc1ccccc1-c1cn2c(CN3CCOCC3)csc2n1
-0.0743

Q: Given the entry Cc1ncc(Cl)cc1NCc1ccc(C(=O)NC(CC2CCCC2)C(=O)NC2CC2)s1 (stereo not given) , report its measured Z-AUC.
Ans: -0.204

Q: Here is the next molecule: CC(C)[C@](O)(c1ccc2cc(OC(F)F)c(OC(F)F)cc2c1)c1cn[nH]n1
Ans: -0.434

---

tested on: HeLa; test: Primary qHTS to identify gynecologic anti-cancer compounds using libraries of approved drugs and bioactive compounds (AID 1345084); settings: Gynecologic cancer cell panel viability, ATPlite luminescence, 48 h; series mostly up to 57.5 µM; further: on the % scale 0 is the no-effect control and ±100 the full control effect; nearly all actives have a fitted effect of over 55% in size
Records with an inconclusive call do not appear. The source made the active and inactive calls. Calls come from the whole dose curve; as a rule, active = well fitted cell-killing curve with a large enough effect; inconclusive = small, poorly fitted or top-dose-only effect, or effect the other way; inactive = flat fitted curve, though single readings scatter.
Readout Type: activity change, negative = cytotoxicity

C=C1CC[C@@]2(OC1)O[C@H]1CC3[C@@H]4CC=C5C[C@H](O[C@H]6OC[C@@H](O)C(O)[C@@H]6O[C@@H]6O[C@@H](C)[C@H](O)[C@@H](O[C@@H]7O[C@H](CO)[C@@H](O)[C@H](O)[C@H]7O)[C@H]6O)C[C@@H](O)[C@]5(C)C4CC[C@]3(C)[C@H]1[C@@H]2C (stereo not given in full)
12.1% [at 11.6 µM] (inactive)
CC[C@H]1OC(=O)[C@H](C)C(=O)[C@H](C)[C@@H](OC2O[C@H](C)C[C@H](N(C)C)[C@H]2O)[C@@H](C)C[C@@H](C)C(=O)/C=C/[C@]1(C)O (stereo not given in full)
inactive
C/C=C(/C)C(=O)O[C@H]1C[C@]2(C)O[C@@H]2[C@@H](OC(C)=O)[C@@]2(C)CC[C@@](O)(C(C)C)[C@H]12
inactive
CC(C)(O)/C=C/C(=O)[C@](C)(O)[C@H]1[C@H](O)C[C@@]2(C)[C@@H]3CC=C4[C@@H](C=C(O[C@@H]5O[C@H](CO)[C@@H](O)[C@H](O)[C@H]5O)C(=O)C4(C)C)[C@]3(C)C(=O)C[C@]12C
inactive

Please examine the following record next.
Q: Report activity change, negative = cytotoxicity for C[C@@H]1C(=O)O[C@H](C)[C@H]1C[C@@H](O)[C@](C)(O)[C@H]1CC[C@@]2(O)C3=CC(=O)[C@@H]4C[C@@H](O)[C@@H](O)C[C@]4(C)C3CC[C@]12C (stereo not given in full) please.
Ans: inactive

---

assay: Primary fluorescence-based thiol-reactive (MSTI) qHTS assay for identification of artifact compounds. (AID 1845221); settings: MSTI thiol-reactivity probe, 1 h; series mostly up to 53.8 µM;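 further: thiol-reactive compounds lower the probe fluorescence signal; nearly all actives have a fitted effect of over 65% in size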
Inconclusive results are not listed. The source made the active and inactive calls. Calls follow the shape of the dose curve; as a rule, active = well fitted inhibition curve with a large enough effect; inconclusive = small, poorly fitted or top-dose-only effect; inactive = no such curve, though single readings can be large or run the other way.
Outcome (select one): y = active, n = inactive

Q: So what was the verdict on CCNC(=O)OC1CCN(c2nncc3cc(OC)c(OC)cc23)CC1 in this test?
Ans: n

---

assay: qHTS drug screen for cell cycle checkpoint inhibitors in PARPi-resistant BRCA-mutant ovarian cancer cell lines. (AID 1963452); settings: PEO1/OlaR viability, CellTiter-Glo luminescence, 96 h; measured here: PEO4 Z-AUC; stronger effect = lower value
Readout Type: Z-AUC
Number only, no unit.

Cc1ncc(Cl)cc1NCc1ccc(C(=O)NC(CC2CCCC2)C(=O)NC2CC2)s1 (stereo not given)
0.18
C[C@@H]1O[C@@H](O[C@@H]2\C=C/C=C\C=C/C=C\C[C@H](C)OC(=O)/C=C\[C@H]3O[C@@H]3C[C@H](O)C[C@]3(O)C[C@@H](O)[C@@H](C(=O)O)[C@H](C2)O3)[C@H](O)[C@H](N)[C@@H]1O
1.97
COc1cccc2c1c(O)c(C(=O)N(C)c1ccc(C(F)(F)F)cc1)c(=O)n2C
0.643
Cc1cccc(-c2nn3c(c2-c2ccnc4ccc(C(N)=O)cc24)CCC3)n1
0.508

Could you now look at the following compound, please?
Q: Record request: Z-AUC value, item N#Cc1ccc(C2CCCc3cncn32)cc1 (stereo not given)
Ans: 0.567

---

tested on: CRL-7250; test: Cytotoxic Profiling of Annotated Libraries Using Quantitative High-Throughput Screening (AID 1296008); conditions: Five cell lines viability, CellTiter-Glo ATP luminescence, 48-72 h; stronger effect = lower value; further: on the % scale 0 is the no-effect control and ±100 the full control effect; nearly all actives have a fitted effect of over 60% in size
Inconclusive results are not listed.
Measured max response values are reported for all entries that follow.
Form entry: value (%) — number only.

These solved cases illustrate the format of a correct answer.
C=C1[C@H](OC(C)=O)[C@H]2[C@@H](OC(C)=O)C(C)C[C@]2(OC(C)=O)C(=O)[C@H](C)/C=C/C(C)(C)C(=O)[C@H](OC(=O)C(C)C)[C@H]1OC(C)=O (stereo not given in full)
2.65
C/C=C/C=C/C(=O)OC1CC/C=C/C(O)C(O)C(CCC)OC1=O (stereo not given)
-18.3
CC1(C)CC[C@]2(C(=O)O)CC[C@]3(C)C(=CCC4[C@@]5(C)CC[C@H](O[C@@H]6O[C@H](C(=O)O)[C@@H](O)[C@H](O[C@@H]7O[C@H](CO)[C@H](O)[C@H](O)[C@H]7O)[C@H]6O[C@@H]6O[C@H](CO)[C@@H](O)[C@H](O)[C@H]6O)C(C)(C)C5CC[C@]43C)[C@@H]2C1 (stereo not given in full)
3.2
COc1cc(/C=C/C(=O)O[C@@H]2C[C@](O)(C(=O)O)C[C@@H](O)[C@H]2O)ccc1O
-5.29
COc1cc(C[C@@]2(O)CO[C@@H](c3ccc(O[C@@H]4O[C@H](CO)[C@@H](O)[C@H](O)[C@H]4O)c(OC)c3)[C@H]2CO)ccc1O
-6.96
C=CC1(C)C=C2CC[C@H]3[C@@](C)(C(=O)O)CCC[C@]3(C)C2CC1 (stereo not given in full)
-9.61
CC1=C2CC3C(CCC3(C)O)C(C)(O)CC2OC1=O (stereo not given)
-2.15
O=C(OCc1ccccc1O[C@@H]1O[C@H](CO)[C@@H](O)[C@H](O)[C@H]1O)C1(O)C=CCCC1O (stereo not given in full)
3.78
C[C@]1(OC(=O)/C=C\c2ccc(O)cc2)C[C@@H](O)[C@]2(O)C=CO[C@@H](O[C@@H]3O[C@H](CO)[C@@H](O)[C@H](O)[C@H]3O)C12 (stereo not given in full)
-13.5
CCCc1[nH]nc2c1C(c1cc(Cl)cc(Cl)c1O)C(C#N)=C(N)O2 (stereo not given)
-0.63

Q: If you can, please state the reported max response value of C/C1=C\CC[C@]2(C)O[C@H]2C(=O)c2c(C)coc2C1 .
Ans: 1.23

Q: Next entry: C=C1CC2C(C)(CCC(=O)O)C(C(C)(C)O)CCC2(C)C2(C(=O)OC)C(=O)C(C)(O)C(=O)C12C (stereo not given)
Ans: -12.5

Q: And the next one, O=C(NCC(=O)N1CCCC1)Nc1ccc2ccccc2c1 ?
Ans: 3.04

Q: What do we get for COc1cc(O[C@@H]2O[C@H](CO[C@H]3OC[C@](O)(CO)[C@H]3O)[C@@H](O)[C@H](O)[C@H]2O)cc(OC)c1O ?
Ans: -3.27

Q: Also need C=C1CCC2[C@](C)(CCC[C@]2(C)C(=O)O)[C@H]1CC/C(C)=C/C(=O)OC (stereo not given in full) , thanks.
Ans: -5.17

---

tested on: Hek293T; test: Primary qHTS to identify gynecologic anti-cancer compounds using libraries of approved drugs and bioactive compounds (AID 1345084); settings: Gynecologic cancer cell panel viability, ATPlite luminescence, 48 h, control line for the selectivity index; series mostly up to 57.5 µM; further: on the % scale 0 is the no-effect control and ±100 the full control effect; nearly all actives have a fitted effect of over 55% in size
Inconclusive results are not listed. The source made the active and inactive calls. Calls follow the shape of the dose curve; as a rule, active = well fitted cell-killing curve with a large enough effect; inconclusive = small, poorly fitted or top-dose-only effect, or effect the other way; inactive = flat fitted curve, though single readings scatter.
Readout Type: activity change, negative = cytotoxicity

CC(=O)OC(C)C(C)(O)C(=O)O[C@@H]1CC[C@]2(C)CC(=O)C(=C(C)C)C[C@H]2[C@]1(C)OC(C)=O (stereo partly drawn)
inactive
C=CC(C)(CC/C=C(\C)C(=O)OC)OC1OC(COC(=O)CC(C)(O)CC(=O)O)C(O)C(O)C1O (stereo not drawn)
inactive
C/C=C(\C)C(=O)OC[C@H]1O[C@@H](O[C@H]2[C@@H](O[C@H]3O[C@H](CO)[C@@H](O)[C@H](O)[C@H]3O[C@@H]3O[C@H](CO)[C@@H](O)[C@H](O)[C@H]3O)O[C@H](COC(=O)/C(C)=C/C)[C@@H](O)[C@@H]2O)[C@H](O)[C@@H](O)[C@@H]1O
2.97% [at 11.6 µM] (inactive)
